Kindly supply the reported inhibition values for the records listed here.
- tgt: Dual specificity protein phosphatase 6 (Rattus norvegicus)
- method_description: MKP-3 phosphatase inhibitors, primary screen, biochemical, rat enzyme, in vitro (AID 425);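 also: plate controls were vehicle for no effect and reference inhibitor for full effect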
- measurement_conditions: recombinant MKP-3 phosphatase activity, fluorescence; at 20 µM; stronger effect = higher value
Among all 110,000 compounds or so, about 190 (0.17%) were called active. This is one part of a sample in which actives are shown more often than they occur. Results with a measured potency or affinity are listed apart.
Numbers only, in %.

>>> measured_value("O=C1NC(=S)N/C1=C/c1ccc(-c2cc([N+](=O)[O-])ccc2Cl)o1")
36.3
>>> measured_value("Cc1cc2nc(-c3cccc(NC(=O)c4ccc(Br)o4)c3)oc2cc1C")
3.2
>>> measured_value("CCN(CC)c1ccc(/C=N/NC(=O)Cn2nnc(-c3ccccc3)n2)c(O)c1")
0.8
>>> measured_value("O=C1c2ccccc2-c2onc3ccc(N4CCCCC4)c1c23")
10.8
>>> measured_value("COc1ccc(CCNC(=O)C2CCN(S(=O)(=O)N3CCCCC3)CC2)cc1OC")
-1.4
>>> measured_value("CCNc1ccc2noc3c2c1C(=O)c1ccccc1-3")
4.2

State recorded inhibition for all listed compounds.
1. O=C1C=Cc2ccccc2/C1=N/Oc1ccc2noc3c2c1C(=O)c1ccccc1-3
2. O=C1c2ccccc2-c2onc3ccc(Oc4ccc(Cl)cc4)c1c23
3. O=C1c2ccccc2-c2onc3ccc(NC4CCCCC4)c1c23
4. CN(C)CCC(=O)c1ccc(O)cc1
5. CCOc1cc(C(=O)Nc2ccc(OCc3ccccc3)cc2)cc(OCC)c1OCC

A)
[65.3, 92.2, -1.7, 3.3, 7]

State recorded inhibition for all listed compounds.
1. O=C(Nc1cccc(NC(=O)c2cccnc2)c1)c1cccnc1
2. O=C(CCCC(=O)OCC(F)(F)C(F)F)Nc1ccc(F)cc1F
3. CCn1c(N)nc2c1c(=O)n(C)c(=O)n2C

A)
5.6
-2.5
-1.5

State recorded inhibition for all listed compounds.
1. C=CCc1cccc2cc(C(=O)NCc3ccccc3)c(=O)oc12
2. O=C1c2ccccc2-c2onc3ccc(NCc4ccco4)c1c23
3. COC(=O)N(C)c1nc2ccccc2s1

A)
1. 6.2
2. -14.4
3. -5

State recorded inhibition for all listed compounds.
1. CCN(CC)CCCNC(=O)c1cc2nc(-c3ccc([N+](=O)[O-])cc3)cc(C(F)(F)F)n2n1
2. Cc1nn(-c2ccccc2)c(C)c1Sc1ccc(Cl)cc1
3. O=C(/C=C/c1ccco1)Nc1ccc(Cl)c(Cl)c1
4. COC(=O)c1c2nc3ccccc3sc-2cc(=O)c1N
5. Cc1cc(=O)n2[nH]c(C)c(-c3ccc(Cl)cc3)c2n1
6. COc1ccc([N+](=O)[O-])cc1NC(=O)c1ccc(N(C)C)cc1

A)
1. 1.9
2. 74.7
3. 10.7
4. 122
5. -8.5
6. 1.4

All figures here come from PubChem BioAssay AID425.
